Organism: Homo sapiens
Experiment: The compound was tested for inhibition of blood platelet aggregation induced by ADP; 0.5-2.5*10e-9
Format: functional, organism-based
reported property: IC50 (nM)
Give bare numbers, in nM.

// IC50 lookup, compound = CC#CCC(C)[C@H](O)/C=C/[C@H]1[C@H](O)C[C@]2(C#CCCCBr)C/C(=C\CCCC(=O)O)C[C@H]12 (stereo partly specified) , result: 0.5

----------
Molecular target: Prostacyclin receptor (Homo sapiens) (UniProt P43119)
Sequence (P43119 whole entry): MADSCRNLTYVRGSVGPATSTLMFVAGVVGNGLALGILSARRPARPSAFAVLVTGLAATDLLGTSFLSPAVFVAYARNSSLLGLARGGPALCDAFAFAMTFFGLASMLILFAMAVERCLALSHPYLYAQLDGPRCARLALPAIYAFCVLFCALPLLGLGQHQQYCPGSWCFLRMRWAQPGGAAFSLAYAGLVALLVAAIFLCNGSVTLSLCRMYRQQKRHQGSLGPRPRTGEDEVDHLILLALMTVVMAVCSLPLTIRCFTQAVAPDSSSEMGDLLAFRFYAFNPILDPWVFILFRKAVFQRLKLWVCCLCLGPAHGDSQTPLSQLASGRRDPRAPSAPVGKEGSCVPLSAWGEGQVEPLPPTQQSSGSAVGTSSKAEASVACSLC
Experiment: Affinity for Prostaglandin I2 receptor
Parameters: unit not given here
reported property: KF

1. CC#CCC(C)[C@H](O)/C=C/[C@H]1[C@H](O)C[C@]2(C#CCCCN=[N+]=[N-])C/C(=C/CCCC(=O)O)C[C@H]12 (some centres not stated) = 80
2. CC#CCC(C)[C@H](O)/C=C/[C@H]1[C@H](O)C[C@]2(C#CCCCBr)C/C(=C\CCCC(=O)O)C[C@H]12 (some centres not stated) = 3
3. CC#CCC(C)[C@H](O)/C=C/[C@H]1[C@H](O)C[C@]2(C#CCCCO)C/C(=C\CCCC(=O)O)C[C@H]12 (some centres not stated) = 25
4. CC#CCC(C)[C@H](O)/C=C/[C@H]1[C@H](O)C[C@]2(CCCCCO)C/C(=C/CCCC(=O)O)C[C@H]12 (some centres not stated) = n.k.
5. CC#CCC(C)[C@H](O)/C=C/[C@H]1[C@H](O)C[C@]2(CCCCCN=[N+]=[N-])C/C(=C\CCCC(=O)O)C[C@H]12 (some centres not stated) = 29
6. CC#CCC(C)[C@H](O)/C=C/[C@@H]1[C@H]2CC(=CCCCC(=O)O)C[C@H]2C[C@H]1O (some centres not stated) = 11

API: the following record is the query input.
Record summary for CC#CCC(C)[C@H](O)/C=C/[C@H]1[C@H](O)C[C@]2(C#CCCCI)C/C(=C\CCCC(=O)O)C[C@H]12 (some centres not stated) : reported KF = 5.6

----------
Provide the recorded Relative potency for the entries that follow.
Assay: Evaluated for the relative potency to that of Iloprost.
Format: functional
Give bare numbers.

1. CC#CCC(C)[C@H](O)/C=C/[C@H]1[C@H](O)C[C@]2(C#CCCCI)C/C(=C\CCCC(=O)O)C[C@H]12 (stereo partly drawn) = 1

Dear colleague, could you please provide Relative potency for the compounds listed below?
1. CC#CCC(C)[C@H](O)/C=C/[C@H]1[C@H](O)C[C@]2(C#CCCCI)C/C(=C/CCCC(=O)O)C[C@H]12 (stereo partly drawn)
2. CC#CCC(C)[C@H](O)/C=C/[C@H]1[C@H](O)C[C@]2(C#CCCC(=O)O)C/C(=C\CCCC(=O)O)C[C@H]12 (stereo partly drawn)
3. CC#CCC(C)[C@H](O)/C=C/[C@H]1[C@H](O)C[C@]2(C#CCCCO)C/C(=C/CCCC(=O)O)C[C@H]12 (stereo partly drawn)
4. CC#CCC(C)[C@H](O)/C=C/[C@H]1[C@H](O)C[C@]2(C#CCCCN=[N+]=[N-])C/C(=C\CCCC(=O)O)C[C@H]12 (stereo partly drawn)

Output line:
1. 0.001
2. 0.0002
3. 0.004
4. 0.1

Batch request: Relative potency per item, same order as input.
1. CC#CCC(C)[C@H](O)/C=C/[C@H]1[C@H](O)C[C@]2(CCCCCO)C/C(=C\CCCC(=O)O)C[C@H]12 (stereo partly drawn)
2. CC#CCC(C)[C@H](O)/C=C/[C@@H]1[C@H]2C/C(=C/CCCC(=O)O)C[C@H]2C[C@H]1O (stereo in doubt; 1) [ILOPROST]

Output line:
1: 0.0006; 2: 1

Field Relative potency (entry CC#CCC(C)[C@H](O)/C=C/[C@H]1[C@H](O)C[C@]2(C#CCCCBr)C/C(=C\CCCC(=O)O)C[C@H]12 (stereo partly drawn) ) reads 1

----------
Species: Homo sapiens
Assay: The compound was tested for inhibition of blood platelet aggregation induced by ADP
Type: functional, organism-based
Task for the reader: assign each of the following molecules its reported IC50.
Give bare numbers, in nM.

Provide IC50 values for the following items, in order.
1. CC#CCC(C)[C@H](O)/C=C/[C@H]1[C@H](O)C[C@]2(C#CCCCO)C/C(=C/CCCC(=O)O)C[C@H]12 (some centres not stated)
2. CC#CCC(C)[C@H](O)/C=C/[C@H]1[C@H](O)C[C@]2(C#CCCCI)C/C(=C/CCCC(=O)O)C[C@H]12 (some centres not stated)
3. CC#CCC(C)[C@H](O)/C=C/[C@@H]1[C@H]2CC(=CCCCC(=O)O)C[C@H]2C[C@H]1O (some centres not stated)
4. CC#CCC(C)[C@H](O)/C=C/[C@H]1[C@H](O)C[C@]2(C#CCCC(=O)O)C/C(=C\CCCC(=O)O)C[C@H]12 (some centres not stated)

Output line:
1. 200
2. 200
3. 4400
4. 2000

Quick batch: IC50 for everything below.
1. CC#CCC(C)[C@H](O)/C=C/[C@H]1[C@H](O)C[C@]2(C#CCCCN=[N+]=[N-])C/C(=C\CCCC(=O)O)C[C@H]12 (some centres not stated)
2. CC#CCC(C)[C@H](O)/C=C/[C@H]1[C@H](O)C[C@]2(CCCCCN=[N+]=[N-])C/C(=C\CCCC(=O)O)C[C@H]12 (some centres not stated)
3. CC#CCC(C)[C@H](O)/C=C/[C@H]1[C@H](O)C[C@]2(C#CCCCN=[N+]=[N-])C/C(=C/CCCC(=O)O)C[C@H]12 (some centres not stated)
4. CC#CCC(C)[C@H](O)/C=C/[C@H]1[C@H](O)C[C@]2(C#CCCCI)C/C(=C\CCCC(=O)O)C[C@H]12 (some centres not stated)
5. CC#CCC(C)[C@H](O)/C=C/[C@H]1[C@H](O)C[C@]2(CCCCCO)C/C(=C\CCCC(=O)O)C[C@H]12 (some centres not stated)
6. CC#CCC(C)[C@H](O)/C=C/[C@H]1[C@H](O)C[C@]2(C#CCCCO)C/C(=C\CCCC(=O)O)C[C@H]12 (some centres not stated)
7. CC#CCC(C)[C@H](O)/C=C/[C@H]1[C@H](O)C[C@]2(CCCCCO)C/C(=C/CCCC(=O)O)C[C@H]12 (some centres not stated)

Output line:
[20, 500, 850, 5, 7000, 10, 11000]

The recorded IC50 for entry CC#CCC(C)[C@H](O)/C=C/[C@H]1[C@H](O)C[C@]2(CCC#CCCCO)C/C(=C\CCCC(=O)O)C[C@H]12 (some centres not stated) equals 400

----------
Assay: Evaluated for the relative potency to that of Iloprost.
Assay type: functional
reported property: Relative potency
Give bare numbers.

Here is how some compounds turned out for Relative potency.
1. CC#CCC(C)[C@H](O)/C=C/[C@H]1[C@H](O)C[C@]2(CCCCCO)C/C(=C/CCCC(=O)O)C[C@H]12 (some centres not stated) = 4e-05
2. CC#CCC(C)[C@H](O)/C=C/[C@@H]1[C@H]2CC(=CCCCC(=O)O)C[C@H]2C[C@H]1O (some centres not stated) = 0.0001

# return Relative potency for each item in the list
1. CC#CCC(C)[C@H](O)/C=C/[C@H]1[C@H](O)C[C@]2(C#CCCCBr)C/C(=C/CCCC(=O)O)C[C@H]12 (some centres not stated)
2. CC#CCC(C)[C@H](O)/C=C/[C@H]1[C@H](O)C[C@]2(CCC#CCCCO)C/C(=C\CCCC(=O)O)C[C@H]12 (some centres not stated)
3. CC#CCC(C)[C@H](O)/C=C/[C@H]1[C@H](O)C[C@]2(C#CCCCN=[N+]=[N-])C/C(=C/CCCC(=O)O)C[C@H]12 (some centres not stated)
4. CC#CCC(C)[C@H](O)/C=C/[C@H]1[C@H](O)C[C@]2(C#CCCCO)C/C(=C\CCCC(=O)O)C[C@H]12 (some centres not stated)
5. CC#CCC(C)[C@H](O)/C=C/[C@H]1[C@H](O)C[C@]2(CCCCCN=[N+]=[N-])C/C(=C\CCCC(=O)O)C[C@H]12 (some centres not stated)

Output line:
0.001
0.002
0.003
0.2
0.0005
